FYI, the data here is from patent US20240360228A1.

Assign % Blocking to each entry below.
# test target: T1, human CCR8 (human, UniProt P51685 1-355)
# T1 construct: Native CCR8 on human PBMC (CCR8+ CD3+ or CCR8+ CD4+ lymphocytes); also called chemokine (C-C motif) receptor 8
# T1 sequence (P51685 whole entry): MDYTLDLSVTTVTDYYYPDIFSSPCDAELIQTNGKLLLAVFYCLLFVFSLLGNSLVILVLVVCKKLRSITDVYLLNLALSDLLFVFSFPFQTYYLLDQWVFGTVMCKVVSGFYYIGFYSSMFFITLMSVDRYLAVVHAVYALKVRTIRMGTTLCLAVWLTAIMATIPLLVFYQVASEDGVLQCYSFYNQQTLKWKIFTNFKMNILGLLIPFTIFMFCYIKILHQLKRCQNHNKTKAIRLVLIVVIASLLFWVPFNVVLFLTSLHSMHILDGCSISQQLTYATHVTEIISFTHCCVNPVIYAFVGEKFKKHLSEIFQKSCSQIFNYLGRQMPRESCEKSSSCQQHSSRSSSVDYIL
# method summary: flow blocking, PBMC CCR8+CD4+; competitor PE-AB2
# Method: For blocking studies, 100 μL of the cell suspension were incubated with 10 μg purified isotype control, AB1, AB2, AB3, AB4, AB5, AB8, AB9, AB10, AB11, AB12, AB13, AB14, AB15, and Commercial ABI antibodies, or isotype control, as blocking agents. […]
Answers are plain numbers, in %.

Reference set (3 entries):
>  <binder>
AB12 (antibody, V domains shown, Hybridoma monoclonal; also called antibody 12; clone 12) VH: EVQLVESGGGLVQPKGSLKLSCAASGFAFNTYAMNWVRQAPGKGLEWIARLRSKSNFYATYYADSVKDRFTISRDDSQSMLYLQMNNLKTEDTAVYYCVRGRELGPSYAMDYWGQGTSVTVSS VL: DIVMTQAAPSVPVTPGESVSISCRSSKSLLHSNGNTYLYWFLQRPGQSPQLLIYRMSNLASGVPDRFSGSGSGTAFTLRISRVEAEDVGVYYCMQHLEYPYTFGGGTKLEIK

>  <recorded value>
-32.9

$$$$
>  <binder>
AB2 (antibody, V domains shown, Hybridoma monoclonal; Same VH/VL entries as AB1; also called antibody 2; clone 2) VH: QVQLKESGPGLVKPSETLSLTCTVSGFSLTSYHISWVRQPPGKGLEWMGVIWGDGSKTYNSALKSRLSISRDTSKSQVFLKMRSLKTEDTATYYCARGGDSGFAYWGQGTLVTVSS VL: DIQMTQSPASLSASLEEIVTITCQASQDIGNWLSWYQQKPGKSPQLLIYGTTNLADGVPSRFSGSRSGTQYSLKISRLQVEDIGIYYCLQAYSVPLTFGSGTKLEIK

>  <recorded value>
98.8

$$$$
>  <binder>
AB1 (antibody, V domains shown, Hybridoma monoclonal (mouse or rat); Same VH/VL entries as AB2; also called antibody 1; clone 1) VH: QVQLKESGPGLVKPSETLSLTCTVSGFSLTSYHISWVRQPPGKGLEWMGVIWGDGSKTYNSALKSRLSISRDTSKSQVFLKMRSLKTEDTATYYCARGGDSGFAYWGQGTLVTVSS VL: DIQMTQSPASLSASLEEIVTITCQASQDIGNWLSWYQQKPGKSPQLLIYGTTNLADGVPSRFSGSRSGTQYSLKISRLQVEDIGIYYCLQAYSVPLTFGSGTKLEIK

>  <recorded value>
98.2

$$$$

For every item in the list below, what is its measured % Blocking?
1. AB4 (antibody, V domains shown, Hybridoma monoclonal; also called antibody 4; clone 4) VH: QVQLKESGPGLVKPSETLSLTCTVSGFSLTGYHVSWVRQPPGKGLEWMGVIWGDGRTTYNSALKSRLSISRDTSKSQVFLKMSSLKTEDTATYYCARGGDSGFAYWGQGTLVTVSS VL: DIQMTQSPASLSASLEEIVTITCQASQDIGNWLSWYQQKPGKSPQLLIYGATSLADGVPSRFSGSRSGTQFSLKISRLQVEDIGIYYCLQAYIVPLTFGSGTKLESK
2. AB11 (antibody, V domains shown, Hybridoma monoclonal; also called antibody 11; clone 11) VH: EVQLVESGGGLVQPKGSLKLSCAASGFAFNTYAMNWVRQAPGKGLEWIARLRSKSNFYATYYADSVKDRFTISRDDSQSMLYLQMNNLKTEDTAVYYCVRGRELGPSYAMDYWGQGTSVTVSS VL: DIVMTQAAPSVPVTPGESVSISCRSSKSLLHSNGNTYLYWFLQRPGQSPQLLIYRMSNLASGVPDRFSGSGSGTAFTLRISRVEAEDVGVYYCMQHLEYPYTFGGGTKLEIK

// result
98.8
-22.6
